Where do the numbers come from? From ChEMBL document CHEMBL1275372.

- assayed_target: 5-hydroxytryptamine receptor 2A (Homo sapiens)
- Sequence (P28223 whole entry): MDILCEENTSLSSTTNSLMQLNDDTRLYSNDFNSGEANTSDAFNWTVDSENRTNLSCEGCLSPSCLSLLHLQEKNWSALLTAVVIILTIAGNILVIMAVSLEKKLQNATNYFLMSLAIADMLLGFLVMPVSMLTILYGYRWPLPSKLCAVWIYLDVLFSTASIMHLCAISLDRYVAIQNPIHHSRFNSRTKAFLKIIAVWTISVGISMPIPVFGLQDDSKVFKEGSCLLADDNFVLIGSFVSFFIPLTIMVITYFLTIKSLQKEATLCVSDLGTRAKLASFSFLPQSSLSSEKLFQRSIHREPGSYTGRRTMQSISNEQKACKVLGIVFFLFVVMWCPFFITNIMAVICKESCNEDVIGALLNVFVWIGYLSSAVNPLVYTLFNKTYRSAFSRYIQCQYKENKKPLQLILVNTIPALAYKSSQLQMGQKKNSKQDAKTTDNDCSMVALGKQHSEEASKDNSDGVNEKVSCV

- chemical_smiles: "CN(C)[C@@H]1CC[C@H](c2c[nH]c3ccc(C#N)cc23)C1"
  assayed_target: "5-hydroxytryptamine receptor 2A (Homo sapiens)"
  IC50 [nM]: 840

----------
- assayed_target: 5-hydroxytryptamine receptor 2B (Homo sapiens, UniProt P41595)
- Sequence (P41595 whole entry): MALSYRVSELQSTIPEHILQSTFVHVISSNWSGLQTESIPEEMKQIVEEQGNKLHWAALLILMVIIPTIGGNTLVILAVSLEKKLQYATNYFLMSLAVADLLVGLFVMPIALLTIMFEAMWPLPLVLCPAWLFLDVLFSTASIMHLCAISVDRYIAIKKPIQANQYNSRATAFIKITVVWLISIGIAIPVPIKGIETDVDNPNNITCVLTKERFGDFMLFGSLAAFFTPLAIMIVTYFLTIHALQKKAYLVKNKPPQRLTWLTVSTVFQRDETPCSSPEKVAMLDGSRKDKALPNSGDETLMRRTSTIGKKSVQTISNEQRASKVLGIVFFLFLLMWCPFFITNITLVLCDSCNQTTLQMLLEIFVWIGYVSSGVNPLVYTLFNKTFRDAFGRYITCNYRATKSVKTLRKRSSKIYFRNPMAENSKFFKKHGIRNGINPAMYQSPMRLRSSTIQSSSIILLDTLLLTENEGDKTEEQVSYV
metric: IC50

- chemical_smiles: "CN(C)[C@@H]1CC[C@H](c2c[nH]c3ccc(C#N)cc23)C1"
  recorded_result: "> 10 µM"

----------
- assayed_target: 5-hydroxytryptamine receptor 1B (Homo sapiens)
- Sequence (P28222 whole entry): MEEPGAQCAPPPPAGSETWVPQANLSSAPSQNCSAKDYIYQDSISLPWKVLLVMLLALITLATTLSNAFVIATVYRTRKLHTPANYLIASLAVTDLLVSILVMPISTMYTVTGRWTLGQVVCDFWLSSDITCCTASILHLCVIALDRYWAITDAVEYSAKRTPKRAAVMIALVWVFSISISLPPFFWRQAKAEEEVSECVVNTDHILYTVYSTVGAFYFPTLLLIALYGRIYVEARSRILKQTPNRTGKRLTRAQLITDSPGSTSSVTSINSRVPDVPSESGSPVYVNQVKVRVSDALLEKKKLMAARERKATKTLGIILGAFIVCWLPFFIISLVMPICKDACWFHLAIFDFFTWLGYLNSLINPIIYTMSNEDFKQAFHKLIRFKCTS
pIC50: −log10 of the molar value.

- chemical_smiles: "CN(C)[C@@H]1CC[C@H](c2c[nH]c3ccc(C#N)cc23)C1"
  pIC50: 6.47
